Test system: baby hamster kidney cells (BHK21)
Experiment: Cytotoxicity, alamarBlue, BHK-21 cells
Format: cell-based
Conditions: 2 h at 37 °C, 0.1–100 µM, alamarBlue fluorescence, non-linear fit, n ≥ 3
No end group written: not given here.
property.measured: EC10 (effective cytotoxic concentration)

Reported EC10 (effective cytotoxic concentration) for GFWGKLWEGVKNAI-NH2 [UyCT1] : what is it?
650 nM

Request: GFWGKLWKPVKKAI-NH2 [D4]
36300 nM

Request: FFSALLSGIKSLF-NH2 [Um4]
3220 nM

Request: IWSAIWSGIKGLL-NH2 [UyCT5]
910 nM

Request: FPFLKLSLKIPKSAIKSAIKRL-NH2 [D10]
5240 nM

Request: IFGAIWSGIKSLF-NH2 [D1]
690 nM

Request: ILSAIWSGIKGLL-NH2 [Uy17]
2730 nM
